Attribution: ChEMBL document CHEMBL3507680

experiment: Human HepG2 cell viability assay in 384 well format; format: toxicity, cell-based; design: dose 125 nL, time 70.5 hour; concentration not given beside the values; conditions: HepG2 cells, read-out: Inhibition
Readout Label: cytotoxicity at 70.5 h (%)
Numbers only, in %.

CCc1[nH]ncc1C(=O)N1CCCC(n2nc(C)nc2C)C1 (centres undefined) = 19.7
Cc1cnc(CNC(=O)[C@@H]2CC[C@@H]3[C@@H](CCN3Cc3ccco3)O2)cn1 = -11.9
O=C(N1CCOCC1)[C@@]12CCO[C@@H]1CCN(Cc1ccccc1F)C2 = -9.82
O=C(NCc1csc2ccccc12)NCC1(O)CCSC1 (centres undefined) = -2.26
O=C(O)C1(Cc2ccc(F)cc2F)CCCN(Cc2ccncc2)C1 (centres undefined) = -5.04

// input: 3 compounds below; output: cytotoxicity at 70.5 h for each
1. N#Cc1cccc(N2CCCC(CO)(CCOc3ccccc3)C2)n1 (centres undefined)
2. Cc1ncsc1C(=O)OCCN1CCCc2ccccc21
3. Cc1nc(N(C)C)nc(C)c1NS(=O)(=O)c1ccc(OC(F)(F)F)cc1

*A*
1: 8.55; 2: -22.3; 3: -6.13
